System: Leukemia L1210
Assay: Activity against Leukemia L1210, oral, increase in life span of mice
Format: in vivo, female mice (BDF1 family)
Details: Mus musculus, L1210; oral once a day for 5 successive days; daily dosage giving maximum increase of life span; read-out: O.D. (optimum dosage)
property label: ED (maximum ILS) (mg/kg)
# value in mg/kg; strip the unit string

COCCCN(C[C@H]1O[C@H](OCC(C)C)[C@H](O)[C@H]1O)C(=O)N(CCCl)N=O; 185
CCCCO[C@H]1O[C@H](CN(CC(C)OC)C(=O)N(CCCl)N=O)[C@@H](O)[C@H](O)[C@H]1O (some centres unmarked); 220

Exercise: Provide measured ED (maximum ILS) value, entry: CCCCOC1OC(CO)C(O)C(N(CC(C)OC)C(=O)N(CCCl)N=O)C1O (centres unmarked)
Key: 240

Exercise: Provide measured ED (maximum ILS) value, entry: COC(C)CN(C[C@H]1O[C@H](OC(C)C)[C@H](O)[C@@H](O)[C@@H]1O)C(=O)N(CCCl)N=O (some centres unmarked)
Key: 180

Exercise: Provide measured ED (maximum ILS) value, entry: CC(C)CN(C[C@H]1O[C@@H](OCC2CCCO2)[C@H](O)[C@@H]1O)C(=O)N(CCCl)N=O (some centres unmarked)
Key: 190

----------
Tested on: Leukemia L1210
Experiment: Activity against Leukemia L1210, intraperitoneal, increase in life span of mice
Assay type: in vivo, female mice (BDF1 family)
Settings: Mus musculus, L1210, ip, ip once a day for 5 successive days; daily dosage giving maximum increase of life span; read-out: O.D. (optimum dosage)
property label: ED (maximum ILS) (mg/kg)
# value in mg/kg; strip the unit string

Sample records with ED (maximum ILS):
O=NN(CCCl)C(=O)N(CC1CCCO1)C[C@H]1O[C@H](OC2CCCCC2)[C@H](O)[C@@H](O)[C@@H]1O (stereo partly shown); 150
COCCN(C(=O)N(CCCl)N=O)C1C(O)C(CO)OC(OC2CCCCC2)C1O (stereo not shown); 170

Exercise: Provide measured ED (maximum ILS) value, entry: CCCCN(C[C@H]1O[C@H](OC2CCCCC2)[C@H](O)[C@@H](O)[C@H]1O)C(=O)N(CCCl)N=O
Key: 200

----------
Tested on: Leukemia L1210
Experiment: Activity against Leukemia L1210, intraperitoneal, increase in life span of mice
Type: in vivo, female mice (BDF1 family)
Conditions: ip; O.D./ILS30
Procedure: Tests were conducted in accordance with the method for measuring antitumor activity of National Cancer Center Tokyo (A, Hoshi et al, Farumashia 9 464 (1973)). […] An increase percentage of life span (ILS%) was calculated from said average survival days compared with those of the control group. […]
property label: Therapeutic ratio TR
A bare number is all that is needed in reply.

Sample records with Therapeutic ratio TR:
CCCCCCO[C@H]1O[C@H](CN(CC(C)C)C(=O)N(CCCl)N=O)[C@@H](O)[C@H](O)[C@H]1O [Compound 26]; 30.2
CCCCO[C@@H]1O[C@H](CN(C)C(=O)N(CCCl)N=O)[C@@H](O)[C@H](O)[C@H]1O [Compound 4]; 29.6
COCCCN(C(=O)N(CCCl)N=O)C1C(OCC(C)C)OC(CO)C(O)C1O (stereo not shown) [Compound 74]; 43.2
O=NN(CCCl)C(=O)N(Cc1ccccc1)C[C@H]1O[C@H](OC2CCCCC2)[C@H](O)[C@@H](O)[C@@H]1O [Compound 46]; 38.5
COc1cccc(CN(C[C@H]2O[C@H](OC3CCCCC3)[C@H](O)[C@@H](O)[C@@H]2O)C(=O)N(CCCl)N=O)c1OC [Compound 49]; 35.9

Exercise: Provide measured Therapeutic ratio TR value, entry: CC(C)CO[C@H]1O[C@H](CO)[C@@H](N(C(=O)N(CCCl)N=O)C2CCCCC2)[C@H](O)[C@@H]1O [Compound 137]
Key: 45.5

Exercise: Provide measured Therapeutic ratio TR value, entry: COCCN(C[C@H]1O[C@H](OCC(C)C)[C@@H](O)[C@@H](O)[C@@H]1O)C(=O)N(CCCl)N=O [Compound 135]
Key: 68.5

----------
Tested on: Leukemia L1210
Experiment: Activity against Leukemia L1210, intraperitoneal, increase in life span of mice
Assay type: in vivo, female mice (BDF1 family)
Conditions: ip; O.D./ILS30
Therapeutic ratio TR of 50 or higher: met. Under 50: not met.

CCCC(OC)O[C@H]1O[C@H](CN(CCC(C)(C)C)C(=O)N(CCCl)N=O)[C@@H](O)[C@H](O)[C@H]1O (stereo partly shown); met
CCCN(C(=O)N(CCCl)N=O)[C@@H]1[C@@H](O)[C@@H](OC2CCCCC2)OC[C@H]1O; not met
CCOCCO[C@H]1O[C@H](CO)[C@@H](O)[C@H](O)[C@H]1N(CCC(C)(C)C)C(=O)N(CCCl)N=O; met
O=NN(CCCl)C(=O)N(CCCCO)C[C@H]1O[C@H](OC2CCCCC2)[C@H](O)[C@@H](O)[C@@H]1O; not met
CCCCO[C@H]1O[C@H](CN(CCC)C(=O)N(CCCl)N=O)[C@H](O)[C@H](O)[C@H]1O; not met
O=NN(CCCl)C(=O)N(CC1CC1)C[C@H]1O[C@H](OC2CCCCC2)[C@H](O)[C@@H](O)[C@@H]1O; not met

Would you kindly look at the next entry?
Exercise: Does the reported Therapeutic ratio TR for COCCN(C(=O)N(CCCl)N=O)C1C(OC(C)COC)OC(CO)C(O)C1O (stereo not shown) fall at or above the 50 mark?
Key: not met

----------
Tested on: Leukemia L1210
Assay: Activity against Leukemia L1210, oral, increase in life span of mice
Type: in vivo, female mice (BDF1 family)
Details: Mus musculus, L1210; oral once a day for 5 successive days; daily dosage giving maximum increase of life span; read-out: O.D. (optimum dosage)
Rule: ED (maximum ILS) below 200 mg/kg gives Met. Equal to or above 200 mg/kg gives Not met.

Observe how each entry below is paired with its result.
O=NN(CCCl)C(=O)N(CC1CCCO1)[C@H]1[C@H](OC2CCCCC2)OC[C@H](O)[C@@H]1O (some centres unmarked); Met
CC(C)CN(C[C@@H]1O[C@@H](OC2CCCCC2)[C@H](O)[C@@H]1O)C(=O)N(CCCl)N=O; Met
CC(C)CN(C[C@H]1O[C@H](OCC2CCCO2)[C@@H](O)[C@@H](O)[C@@H]1O)C(=O)N(CCCl)N=O (some centres unmarked); Not met
COCCN(C[C@H]1O[C@H](OC2CCCCC2)[C@H](O)[C@@H](O)[C@H]1O)C(=O)N(CCCl)N=O; Not met
COCCN(C[C@H]1O[C@H](OC2CCCCC2)[C@H](O)[C@@H](O)[C@@H]1O)C(=O)N(CCCl)N=O; Not met
CCOCCO[C@H]1O[C@H](CN(CC(C)C)C(=O)N(CCCl)N=O)[C@H](O)[C@H](O)[C@H]1O; Not met
COC(C)CN(C(=O)N(CCCl)N=O)[C@H]1CO[C@@H](OCC(C)C)[C@H](O)[C@H]1O (some centres unmarked); Met
CCOCCN(C(=O)N(CCCl)N=O)[C@@H]1[C@@H](O)[C@@H](OC2CCCCC2)OC[C@H]1O; Not met
O=NN(CCCl)C(=O)N[C@H]1C(O)O[C@H](CO)[C@@H](O)[C@@H]1O (some centres unmarked) [DCNU, reference compound]; Met
CCOCCO[C@H]1O[C@H](CN(C(=O)N(CCCl)N=O)C(C)C)[C@H](O)[C@H](O)[C@H]1O; Met

Exercise: Confirm or reject: ED (maximum ILS) of CC(C)CN(C[C@H]1O[C@@H](OC2CCCCC2)[C@@H](O)[C@@H]1O)C(=O)N(CCCl)N=O lies strictly below 200 mg/kg
Key: Met

Exercise: Confirm or reject: ED (maximum ILS) of COCC(C)N(C[C@H]1O[C@H](OC2CCCCC2)[C@H](O)[C@@H](O)[C@@H]1O)C(=O)N(CCCl)N=O (some centres unmarked) lies strictly below 200 mg/kg
Key: Not met

----------
Tested on: Leukemia L1210
Assay: Activity against Leukemia L1210, intraperitoneal, increase in life span of mice
Type: in vivo, female mice (BDF1 family)
Details: Mus musculus, L1210, ip, ip once a day for 5 successive days; daily dosage giving maximum increase of life span; read-out: O.D. (optimum dosage)
Recorded ED (maximum ILS) by entry
# value in mg/kg; strip the unit string

CC(C)(C)CN(C[C@H]1O[C@H](OCC2CCCO2)[C@H](O)[C@@H](O)[C@@H]1O)C(=O)N(CCCl)N=O (some centres unmarked); 170
COC(C)CN(C[C@H]1O[C@H](OC(C)C)[C@H](O)[C@@H](O)[C@@H]1O)C(=O)N(CCCl)N=O (some centres unmarked); 140
CCOCCN(C[C@H]1O[C@H](OC2CCCCC2)[C@H](O)[C@@H](O)[C@@H]1O)C(=O)N(CCCl)N=O; 170
CCOCCO[C@H]1O[C@H](CN(CC(C)(C)C)C(=O)N(CCCl)N=O)[C@@H](O)[C@H](O)[C@H]1O; 160
COc1cccc(CO[C@H]2O[C@H](CN(CC(C)C)C(=O)N(CCCl)N=O)[C@@H](O)[C@H](O)[C@H]2O)c1OC; 120

Exercise: Provide measured ED (maximum ILS) value, entry: COC(C)CO[C@H]1O[C@H](CN(CC2CCCO2)C(=O)N(CCCl)N=O)[C@H](O)[C@H](O)[C@H]1O (some centres unmarked)
Key: 200
